Value source: patent US6211210A

Test Target: COX-2 (Homo sapiens)
Construct: incubation of human whole blood with LPS which induces COX-2; endogenous in cells
Sequence (P35354 18-604): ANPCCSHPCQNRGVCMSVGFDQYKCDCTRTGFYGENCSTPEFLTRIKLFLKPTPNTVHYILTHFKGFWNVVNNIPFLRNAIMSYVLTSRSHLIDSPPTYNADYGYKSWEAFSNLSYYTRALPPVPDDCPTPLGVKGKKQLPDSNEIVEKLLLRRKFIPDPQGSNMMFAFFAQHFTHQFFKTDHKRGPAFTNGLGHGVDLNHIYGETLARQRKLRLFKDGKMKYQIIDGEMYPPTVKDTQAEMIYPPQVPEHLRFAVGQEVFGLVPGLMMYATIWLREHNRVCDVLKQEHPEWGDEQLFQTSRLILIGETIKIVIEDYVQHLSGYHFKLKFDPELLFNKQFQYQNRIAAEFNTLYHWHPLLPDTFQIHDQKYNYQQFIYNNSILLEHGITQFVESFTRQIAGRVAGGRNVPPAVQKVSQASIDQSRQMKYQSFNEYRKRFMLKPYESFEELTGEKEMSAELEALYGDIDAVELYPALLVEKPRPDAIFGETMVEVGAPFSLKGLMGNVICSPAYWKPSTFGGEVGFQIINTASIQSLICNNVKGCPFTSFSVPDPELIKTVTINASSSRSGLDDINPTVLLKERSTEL
Experimental Protocol: Human whole blood assay: COX-2 (LPS-induced PGE2 production)
Applied Conditions: LPS-induced PGE2, 24 hours at 37° C.
Source text: As well, platelets in whole blood contain a large amount of the COX-1 enzyme. Immediately following blood clotting, platelets are activated through a thrombin-mediated mechanism. This reaction results in the production of thromboxane B2 (TxB2) via activation of COX-1. […] Therefore, the degree of selectivity by the test compound can be determined by measuring the levels of PGE2 after LPS induction (COX-2) and TxB2 following blood clotting (COX-1) in the same assay. […]
Readout Kind: pIC50
Hey, just a heads up that pIC50 is the negative log base 10 of the concentration in molar.

Solved cases (4 shown):
{"Molecule": "CS(=O)(=O)c1ccc(-c2sn[n+]([O-])c2-c2ccccc2)cc1 [Example 1]", "Test Target": "COX-2 (Homo sapiens)", "pIC50": 6.22}
{"Molecule": "CS(=O)(=O)c1ccc(-c2sn[n+]([O-])c2-c2cccc(F)c2)cc1 [Example 3]", "Test Target": "COX-2 (Homo sapiens)", "pIC50": 5.89}
{"Molecule": "CS(=O)(=O)c1ccc(-c2sn[n+]([O-])c2-c2cccc(Cl)c2)cc1 [Example 5]", "Test Target": "COX-2 (Homo sapiens)", "pIC50": 6.30}
{"Molecule": "CS(=O)(=O)c1ccc(-c2sn[n+]([O-])c2-c2ccc(F)cc2)cc1 [Example 2]", "Test Target": "COX-2 (Homo sapiens)", "pIC50": 6.22}

Would you kindly look at the next entry?
Prompt line: Need pIC50, item CS(=O)(=O)c1ccc(-c2sn[n+]([O-])c2-c2ccc(F)c(F)c2)cc1 [Example 4]
Response line: 6.30
